Target: α5β3γ2 GABAA/BzR (Homo sapiens, UniProt P18507+P31644)
Assay: Competition binding to HEK cell membranes, α5β3γ2
Design: expressed in transfected cells
Conditions: read-out: Ki α5
pKi: −log10 of the molar value.
Given measured pKi, output true if it is greater than or equal to 7 and false if not.

{"COMPOUND": "C#Cc1ccc2c(c1)C(c1ccccc1F)=NCc1nnc(C)n1-2 [JYI-70]", "TEST_TARGET": "α5β3γ2 GABAA/BzR (Homo sapiens, UniProt P18507+P31644)", "CATEGORY_LABEL": "true"}
{"COMPOUND": "CC(C)OC(=O)c1ncn2c1[C@@H]1CCCN1C(=O)c1ccccc1-2 [MMB-III-016]", "TEST_TARGET": "α5β3γ2 GABAA/BzR (Homo sapiens, UniProt P18507+P31644)", "CATEGORY_LABEL": "true"}
{"COMPOUND": "CC(OC(=O)c1ncn2c1C1CCCN1C(=O)c1ccccc1-2)C(F)(F)F (stereo not shown) [MMB-III-14]", "TEST_TARGET": "α5β3γ2 GABAA/BzR (Homo sapiens, UniProt P18507+P31644)", "CATEGORY_LABEL": "true"}

Okay, next one:
Hello, I need to know if C#Cc1ccc2c(c1)C(c1ccccc1)=NCc1c(C(=O)OCC(F)(F)F)ncn1-2 [DM-II-20] has measured pKi not below 7. Thanks!
true
